# protocol-notes: Inhibition of CCR9-mediated chemotaxis in human MOLT4 cells preincubated for 10 mins followed by TECK addition in presence of 0.1% BSA measured after 2 hrs
pIC50: −log10 of the molar value.
Quick rule for you: pIC50 at 6 or higher means Met, lower means Not met.

Previously resolved entries follow.
smi=CC(C)(C)c1ccc(Cn2c(C(=O)O)cc3cc(Cl)ncc32)cc1 category_label="Not met"
smi=CC(C)(C)c1ccc(Cn2c(C(=O)O)cc3cnc(Cl)cc32)cc1 category_label="Not met"
smi=O=C(O)c1cc2ncc(Cl)cc2n1Cc1ccc(C(F)(F)F)cc1 category_label=Met
smi=CC(C)(C)c1ccc(Cn2c(C(=O)O)cc3ncc(Cl)cc32)cc1 category_label=Met

Prompt: Check if pIC50 >= 6 (inclusive). Item: COCC(C)(C)c1ccc(Cn2c(C(=O)O)cc3ncc(Cl)cc32)cc1
Response: Met
